- Measured target: alpha-L-fucosidase (Bos taurus)
- Assay comment: Binding affinity against alpha-L-fucosidase in bovine kidney was determined
pKi: −log10 of the molar value.

{"Compound": "CC1CC(NCc2ccccc2)C(O)C(O)C1O (stereo unspecified)", "pKi": 7.16}

====

The entries below come with measured IC50 values attached.
- Measured target: alpha-L-fucosidase (Bos taurus)
- Assay comment: Inhibition of bovine kidney alpha-L-fucosidase

{"Compound": "CC1CC2N=C(NCc3ccccc3)OC2C(O)C1O (centres undefined)", "Measured target": "alpha-L-fucosidase (Bos taurus)", "Unit symbol": "nM", "IC50": 72000}
{"Compound": "CCCCNC1CC(C)C(O)C(O)C1O (centres undefined)", "Measured target": "alpha-L-fucosidase (Bos taurus)", "Unit symbol": "nM", "IC50": 920}
{"Compound": "CC1CC(NCc2ccccc2)C(O)C(O)C1O (centres undefined)", "Measured target": "alpha-L-fucosidase (Bos taurus)", "Unit symbol": "nM", "IC50": 1000}
{"Compound": "CC1CC2N=C(Nc3ccccc3)OC2C(O)C1O (centres undefined)", "Measured target": "alpha-L-fucosidase (Bos taurus)", "Unit symbol": "nM", "IC50": 7600}
{"Compound": "CCCCCCCNC1CC(C)C(O)C(O)C1O (centres undefined)", "Measured target": "alpha-L-fucosidase (Bos taurus)", "Unit symbol": "nM", "IC50": 270}
{"Compound": "CCCCCCCCCNC1CC(C)C(O)C(O)C1O (centres undefined)", "Measured target": "alpha-L-fucosidase (Bos taurus)", "Unit symbol": "nM", "IC50": 240}
{"Compound": "CCNC1CC(C)C(O)C(O)C1O (centres undefined)", "Measured target": "alpha-L-fucosidase (Bos taurus)", "Unit symbol": "nM", "IC50": 21000}
{"Compound": "CC1CC(NCCc2ccccc2)C(O)C(O)C1O (centres undefined)", "Measured target": "alpha-L-fucosidase (Bos taurus)", "Unit symbol": "nM", "IC50": 240}
{"Compound": "CCCCNC1=NC2CC(C)C(O)C(O)C2O1 (centres undefined)", "Measured target": "alpha-L-fucosidase (Bos taurus)", "Unit symbol": "nM", "IC50": 140000}
